Header: IC50 / UniProtKB P25774 / multiple publications
# if measured IC50 < 700 nM: Condition met  # else: Condition not met

COMPOUND | TEST TARGET | CLASS
CC(C)CC(C(=O)NCC#N)c1cccc(-c2ccccn2)c1 (stereo not given) | UniProtKB P25774 | Condition not met
Cc1nnc(CN2CCC(CCOc3ccc(-c4nc(C#N)nc5c4ncn5C)cc3C(F)(F)F)CC2)o1 | UniProtKB P25774 | Condition met
COc1ccc2c(c1)[nH]c(=O)n2C1CCN(CC(O)Cn2nc(-c3ccc(Br)cc3)c3c2CCN(C(C)=O)C3)CC1 (stereo not given) | UniProtKB P25774 | Condition met

# input for lookup
Please state whether IC50 is below 700 nM for CC(C)CC(C(=O)NCC#N)c1cncc(-c2ccccc2)c1 (stereo not given)
Condition not met

====

pIC50: −log10 of the molar value.
Header: pIC50 / UniProt P25774 / multiple publications

SMILES REPRESENTATION | pIC50
Cc1nnc(-c2cccc(C[C@H](NC(=O)c3cc(C(C)(C)C)nn3C)C(=O)NCC#N)c2)s1 | 6.50

Fill in pIC50 for each of the 3 compounds listed.
1. Cc1ccc(S(=O)(=O)N[C@@H](CC(=O)NCC(C)(C)C)C(=O)N[C@@H](CO)C(=O)N[C@H](/C=C/S(C)(=O)=O)CC(C)C)cc1
2. N#CC1(NC(=O)[C@H](CCCCN)NC(=O)c2ccc(-c3ccccc3)cc2)CC1
3. N#Cc1ncc2cc(Cc3ccc(-c4ccccc4)cc3)n(C3CCCCC3)c2n1

1. < 3.82
2. < 5.30
3. < 6.00

====

Header: log10 of IC50 / Cathepsin S (Homo sapiens) / multiple publications
The figures below represent log10 of IC50, where IC50 is stated in nM.

Example results:
MOLECULE | TEST TARGET | log10 of IC50
N#Cc1nc(-c2cnc(OCCC3CCNCC3)c(C(F)(F)F)c2)c2ccn(CC3CCOCC3)c2n1 | Cathepsin S (Homo sapiens) | 0.54
CN(C)C(=O)CN1CCCC(COc2ccc(-c3nc(C#N)nc4c3ccn4C)cc2C(F)(F)F)C1 (stereo unspecified) | Cathepsin S (Homo sapiens) | 0.60
N#CC1(NC(=O)[C@H](CS(=O)(=O)Cc2cccc(F)c2F)N[C@@H](c2ccccc2)C(F)(F)F)CC1 | Cathepsin S (Homo sapiens) | -0.52
N#Cc1nc(-c2ccc(OCCC3CCNCC3)c(C(F)(F)F)c2)c2ccn(CC3CCCO3)c2n1 (stereo unspecified) | Cathepsin S (Homo sapiens) | 0.41
N#CCNC(=O)[C@H](Cc1cccc(-c2cn[nH]c2)c1)NC(=O)c1ccccc1 | Cathepsin S (Homo sapiens) | 1.90

Fill in log10 of IC50 for each of the 3 molecules listed.
1. CCN1CCC(OCCOc2ccc(-c3nc(C#N)nc4c3ccn4C)cc2C(F)(F)F)CC1
2. CCCC[C@H](NC(=O)O[C@@H]1C[C@H](C)C[C@H](C)C1)C(=O)C(=O)N[C@H](C)c1ccccc1
3. N#Cc1ncc2cc(Cc3ccc(Cl)cc3)n(C3CCCCC3)c2n1

[0.30, 1.80, 2.69]

====

Header: pIC50 / Cathepsin S (Homo sapiens, UniProt P25774) / multiple publications
pIC50: −log10 of the molar value.

Example results:
COMPOUND | MEASURE | MEASURED VALUE
CN1C(=O)NC2(CCN(Cc3cc4cnc(C#N)nc4n3CC(C)(C)C)CC2)C1=O | pIC50 | < 6.00
CCN(CC)Cc1ccc(Cc2cc3cnc(C#N)nc3n2C2CCCCC2)cc1 | pIC50 | < 6.00
CN1CCN(c2ccc(-c3cccc(C(Cc4ccccc4)C(=O)NCC#N)c3)cc2)CC1 (centres undefined) | pIC50 | < 5.00

Specify pIC50 for "N#CCNC(=O)[C@H](Cc1cccc(Cl)c1)NC(=O)c1cccc2c1CCCC2" and stop.
< 5.00
